Target: T1, human BTLA Fc fusion (dimeric) (human, UniProt Q7Z6A9 31-157)
T1 construct: not shown: Fc part not described
T1 sequence (looked up): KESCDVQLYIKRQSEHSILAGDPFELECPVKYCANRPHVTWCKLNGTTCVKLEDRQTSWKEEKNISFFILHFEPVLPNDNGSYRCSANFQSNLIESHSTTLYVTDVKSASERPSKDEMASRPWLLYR
Test: binding to dimeric Fc fusions of CD28 family members
MEASURED_QUANTITY: binding result

35A9 (antibody, V domains shown, Armenian hamster monoclonal tested as IgG; also called hamster anti-ICOS 35A9) VH: EVQLVESGGGLVKPGGSLKLSCAASGFTFSDYWMDWVRQAPGKGLEWVGNIDEDGSIAEYSPFVKGRFTISRDNVKNTLYLQMNSVKSEDTATYYCSRWGRFAFDSWGQGTLVTVSS VL: DIVMTQSPSSLAVSAGDRVTINCKSSQSLLSGSFNYLTWYQQKTGQAPKLLIFYASTRHTGVPDRFMGSGSGTDFTLTINSFQTEDLGDYYCHHHYNAPPTFGPGTKLELR :: no binding
36E10 (antibody, V domains shown, Armenian hamster monoclonal tested as IgG; also called hamster anti-ICOS 36E10) VH: EVQLVESGGGLVKPGGSLKLSCAASGFTFSDYWMDWVRQAPGKGLEWVGNIDEDGSITEYSPFVKGRFTISRDNVKNILYLQMNSVKSEDTATYYCTRWGRFAFDSWGQGTLVTVSS VL: DIVMTQSPSSLAVSPGDRVTINCKSSQSLLSGSFHYLTWYQQKTGQAPKLLIFYASTRHTGVPDRFMGSGSGTDFTLTINSFQTEDLGDYYCHHHYNAPPTFGPGTKLELR :: no binding
16G10 (antibody, V domains shown, Armenian hamster monoclonal tested as IgG; also called hamster anti-ICOS 16G10) VH: EVQLVESGGGLVKPGGSLKLSCAASGFTFSDYWMDWVRQAPGKGLEWVGNIDHDGNIINFAPSVKGRFTISRDNAKNTLYLQMNSVKSEDTATYYCARWGHYAFDSWGQGTLVTVSS VL: DIVMTQSPSSLAVSAGDKVTINCKSSQSLLSSGYNYLIWYQQKTGQAPKLLIFYASTRHTGVPDRFIGSGSGTDFTLTITSFQTEDLGDYYCQHHYSSPPTFGPGTKLEIK :: no binding

Reference source: patent US20180371091A1
